type: in vivo, mice; conditions: male, mouse, plasma, po, 12 mg/kg, Tmax, WT mice, control (vehicle); DLX 12 mg/kg p.o.
quantity: Tmax

Which measured Tmax value corresponds to CNCC[C@H](Oc1cccc2ccccc12)c1cccs1 ?
1.38 h

====

type: in vivo, mice; conditions: male, Cyp1a2-KO, mouse, plasma, po, 12 mg/kg, T1/2, Cyp1a2-KO mice, control (vehicle); DLX 12 mg/kg p.o.
quantity: half-life (h)
Give your result in h as a bare value.

If you can, please state the reported half-life value of CNCC[C@H](Oc1cccc2ccccc12)c1cccs1 [DLX] .
4.43

====

format: in vivo, mice; conditions: male, Cyp1a2-KO, mouse, plasma, po, 12 mg/kg, MRT0-t, Cyp1a2-KO mice, Cyp2d+I (propranolol 30 mg/kg 16 h before); DLX 12 mg/kg p.o.; plasma
quantity: MRT last (h)
Note: unit h is implicit; provide only the numeric part.

Which MRT last reading was recorded for the compound CNCC[C@H](Oc1cccc2ccccc12)c1cccs1 [DLX] ?
4.61

====

system: Cyp2d; type: in vivo, mice; conditions: male, mouse, plasma, po, 12 mg/kg
quantity: AUC(0-inf)

# get_value(readout='AUC(0-inf)', item= CNCC[C@H](Oc1cccc2ccccc12)c1cccs1 [DLX] )
8.5 µM·h

====

assay type: in vivo, mice; settings: male, mouse, plasma, po, 12 mg/kg, MRT0-t, WT mice, Cyp2d+I (propranolol 30 mg/kg 16 h before); DLX 12 mg/kg p.o.; plasma
quantity: MRT last (h)
Numbers only here, please. The scale is h.

Field request: MRT last | item: CNCC[C@H](Oc1cccc2ccccc12)c1cccs1
5.51

====

format: in vivo, mice; settings: male, mouse, plasma, po, 12 mg/kg, AUC0-t, WT mice, Cyp2d+I (propranolol 30 mg/kg 16 h before); DLX 12 mg/kg p.o.; plasma
quantity: AUC(0-t) (µM·h)
Hi! Could you send only the number? It should be in µM·h, unit omitted.

I would be grateful if you could share the reported AUC(0-t) for CNCC[C@H](Oc1cccc2ccccc12)c1cccs1 .
8.45

====

type: in vivo, mice; settings: male, mouse, plasma, po, 12 mg/kg, T1/2, WT mice, Cyp2d+I (propranolol 30 mg/kg 16 h before); DLX 12 mg/kg p.o.; plasma
quantity: half-life
State the result as a value with its unit after it.

I have this compound here, CNCC[C@H](Oc1cccc2ccccc12)c1cccs1 , and I need its recorded half-life.
3.32 h

====

format: in vivo, mice; conditions: male, mouse, plasma, po, 12 mg/kg
quantity: AUC(0-inf) (µM·h)
Give the quantity in µM·h, number only.

Given CNCC[C@H](Oc1cccc2ccccc12)c1cccs1 , state its recorded AUC(0-inf).
2.12

====

test system: Cyp2d; assay type: in vivo, mice; settings: male, Cyp1a2-KO, mouse, plasma, po, 12 mg/kg
quantity: AUC(0-inf) (µM·h)
Give the value in µM·h but do not write µM·h after it.

Report AUC(0-inf) for CNCC[C@H](Oc1cccc2ccccc12)c1cccs1 please.
4.27

====

type: in vivo, mice; details: male, mouse, plasma, po, 12 mg/kg, T1/2, WT mice, control (vehicle); DLX 12 mg/kg p.o.
quantity: half-life (h)
Give your result in h as a bare value.

GET /values?readout=half-life&item= CNCC[C@H](Oc1cccc2ccccc12)c1cccs1 [DLX]
4.28

====

format: in vivo, mice; conditions: male, Cyp1a2-KO, mouse, plasma, po, 12 mg/kg, T1/2, Cyp1a2-KO mice, Cyp2d+I (propranolol 30 mg/kg 16 h before); DLX 12 mg/kg p.o.; plasma
quantity: half-life (h)
Express the result in h but write the number alone.

What measured half-life goes with CNCC[C@H](Oc1cccc2ccccc12)c1cccs1 ?
3.66

====

format: in vivo, mice; conditions: male, Cyp1a2-KO, mouse, plasma, po, 12 mg/kg, MRT0-t, Cyp1a2-KO mice, control (vehicle); DLX 12 mg/kg p.o.
quantity: MRT last

Given CNCC[C@H](Oc1cccc2ccccc12)c1cccs1 , state its recorded MRT last.
5.73 h

====

assay type: in vivo, mice; conditions: male, Cyp1a2-KO, mouse, plasma, po, 12 mg/kg, MRT0-∞, Cyp1a2-KO mice, control (vehicle); DLX 12 mg/kg p.o.
quantity: MRT inf (h)
Enter your answer as a number in h; do not include the unit.

For the molecule shown here, CNCC[C@H](Oc1cccc2ccccc12)c1cccs1 , give the reported MRT inf.
6.39

====

type: in vivo, mice; conditions: male, mouse, plasma, po, 12 mg/kg, Tmax, Cyp1a2-KO mice, control (vehicle); DLX 12 mg/kg p.o.
quantity: Tmax

Query (compound): CNCC[C@H](Oc1cccc2ccccc12)c1cccs1 [DLX] ; field requested: Tmax
2.5 h

====

type: in vivo, mice; details: male, Cyp1a2-KO, mouse, plasma, po, 12 mg/kg
quantity: AUC(0-inf)
State the value, then name its unit.

What value of measured AUC(0-inf) is listed for CNCC[C@H](Oc1cccc2ccccc12)c1cccs1 ?
1.89 µM·h

====

assay type: in vivo, mice; details: male, mouse, plasma, po, 12 mg/kg, Cmax, WT mice, control (vehicle); DLX 12 mg/kg p.o.
quantity: Cmax (nM)
Kindly answer with a numeric value in nM, unit omitted.

Find the recorded Cmax belonging to CNCC[C@H](Oc1cccc2ccccc12)c1cccs1 and report it.
360

====

format: in vivo, mice; conditions: male, mouse, plasma, po, 12 mg/kg, MRT0-∞, WT mice, Cyp2d+I (propranolol 30 mg/kg 16 h before); DLX 12 mg/kg p.o.; plasma
quantity: MRT inf

Which MRT inf reading was recorded for the compound CNCC[C@H](Oc1cccc2ccccc12)c1cccs1 ?
5.75 h

====

type: in vivo, mice; conditions: male, mouse, plasma, po, 12 mg/kg, Cmax, Cyp1a2-KO mice, Cyp2d+I (propranolol 30 mg/kg 16 h before); DLX 12 mg/kg p.o.; plasma
quantity: Cmax (nM)
// units = nM; emit number, no label

Can you look up the measured Cmax of CNCC[C@H](Oc1cccc2ccccc12)c1cccs1 for me?
790
